Tested on: BT-474
measurement description: Antiproliferative activity against human BT474 cells after 48 hrs by Alamar blue assay
Type: functional, cell-based
test context: BT-474, 48 h
measurement kind: IC50 (µM)
Kindly answer with a numeric value in µM, unit omitted.

C=C[C@@]1(C)CC(=O)[C@]2(O)[C@@]3(C)[C@@H](OCc4cc(-c5ccc(OC)c(OC)c5)no4)CCC(C)(C)[C@@H]3[C@H](OC(C)=O)[C@H](O)[C@@]2(C)O1 = 28.3
C=C[C@@]1(C)CC(=O)[C@]2(O)[C@@]3(C)[C@@H](OCc4cc(-c5ccccc5)no4)CCC(C)(C)[C@@H]3[C@H](O)[C@H](OC(C)=O)[C@@]2(C)O1 = 5

# returns recorded IC50 (system: BT-474) for CC(=O)O[C@H]1[C@H]2C(C)(C)CC[C@H](OCc3cc(-c4ccc(OCc5ccccc5)cc4)no3)[C@]2(C)[C@@]2(O)C(=O)C[C@](C)(C3CC(c4ccc(OCc5ccccc5)cc4)=NO3)O[C@]2(C)[C@H]1O (stereo not given in full) 1.3

Data origin: ChEMBL document CHEMBL4219035
